# Residual activity (%) Polymerase values compiled below
molecular target: RNA-dependent DNA polymerase activity of HIV reverse transcriptase (Human immunodeficiency virus type 1 group M subtype B, UniProt P04585); construct: made in house; assay: RNA-dependent DNA polymerase activity assay of HIV reverse transcriptase; format: biochemical, HIV-1; settings: 10 μM inhibitor concentration; activity with analog / without analog x 100
Number in %, nothing else.

> print(dat)
                                   compound                     endpoint.name  value
1  Cc1c(C(O)C(C)(C)C)cc2n(c1=O)Cc1c-2nc2ccc(F)cc2c1-c1ccccc1 (racemic) [3Bβ]  Residual activity (%) Polymerase     78

Inquiry: Identify the reported Residual activity (%) Polymerase for the following entry. CCCCCCc1c2c(nc3ccccc13)-c1cc(C(O)CCC3CCCCC3)c(C)c(=O)n1C2 (centres unmarked) [8Aδ]
Reply text: 72

Inquiry: Kindly indicate its recorded Residual activity (%) Polymerase. Item: CCC(O)c1cc2n(c(=O)c1C)Cc1c-2nc2ccc(OC)cc2c1[Si](C)(C)C (racemic) [5Dα]
Reply text: 88

Inquiry: Write down Residual activity (%) Polymerase measured for item Cc1c(C(=O)CCC2CCCCC2)cc2n(c1=O)Cc1c-2nc2ccccc2c1-c1ccccc1 [3Aδκ]
Reply text: 66

Inquiry: // fetch Residual activity (%) Polymerase given entry Cc1ccc2nc3c(c(-c4ccccc4)c2c1)Cn1c-3cc(C(O)CCC2CCCCC2)c(C)c1=O (centres unmarked) [3Cδ]
Reply text: 74

Inquiry: Give the measured Residual activity (%) Polymerase for Cc1c(C(=O)CCC2CCCCC2)cc2n(c1=O)Cc1c-2nc2ccc(F)cc2c1[Si](C)(C)C [5Bδκ]
Reply text: 46

Inquiry: Give Residual activity (%) Polymerase for the following compound: Cc1c(C(=O)CCC2CCCCC2)cc2n(c1=O)Cc1c-2nc2ccc(F)cc2c1[Si](C)(C)C(C)(C)C [4Bδκ]
Reply text: 56

Origin of values: patent US20040058948A1
